# System name: Fbw7 (UniProt Q969H0 263-707, limits assumed)
# Sequence (Q969H0 263-707 limits assumed): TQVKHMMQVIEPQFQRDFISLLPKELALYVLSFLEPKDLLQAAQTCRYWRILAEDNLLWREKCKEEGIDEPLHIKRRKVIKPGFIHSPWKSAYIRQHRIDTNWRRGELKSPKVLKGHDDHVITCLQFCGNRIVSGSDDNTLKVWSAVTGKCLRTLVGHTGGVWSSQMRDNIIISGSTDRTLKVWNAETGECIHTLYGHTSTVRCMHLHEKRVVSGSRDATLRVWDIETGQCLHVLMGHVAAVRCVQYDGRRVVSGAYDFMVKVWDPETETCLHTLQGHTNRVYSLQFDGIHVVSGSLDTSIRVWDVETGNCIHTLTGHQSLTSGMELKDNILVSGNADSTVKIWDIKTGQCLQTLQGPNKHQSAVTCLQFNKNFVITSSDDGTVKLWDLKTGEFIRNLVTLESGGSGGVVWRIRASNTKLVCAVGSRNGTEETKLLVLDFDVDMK
# Measurement description: cell-based or functional assay
Starred links: 1 amine or outer side, 2 acyl side, 3 side chain; linkers in the order of their positions; H or OH if unused. Non-standard residues stand in square brackets, D forms with d. *: point of attachment. Tyr(Me) = O-methyl-L-tyrosine, COc1ccc(C[C@H](N[*:1])C(=O)[*:2])cc1; Phe(4-NO2) = N[C@@H](Cc1ccc([N+](=O)[O-])cc1)C(=O)O; Phe(3-F) = N[C@@H](Cc1cccc(F)c1)C(=O)O; 1Nal = N[C@@H](Cc1cccc2ccccc12)C(=O)O; Phe(2-F) = N[C@@H](Cc1ccccc1F)C(=O)O; Suc = O=C(CCC(=O)[*:2])[*:1]; Tos = Cc1ccc(S(=O)(=O)*)cc1; Ethoxycarbonyl = CCOC(=O)*
Measure name: % Inhibition Fbw7 @ (100 µM) (%)
Answers are plain numbers, in %.

Ethoxycarbonyl-[dD]EG[Phe(3-F)]WE-NH2 (SMILES CCOC(=O)N[C@H](CC(=O)O)C(=O)N[C@@H](CCC(=O)O)C(=O)NCC(=O)N[C@@H](Cc1cccc(F)c1)C(=O)N[C@@H](Cc1c[nH]c2ccccc12)C(=O)N[C@@H](CCC(=O)O)C(N)=O, also called UBP023) [EtO(CO)-dEGF(3F)WE-NH2] | 12
Suc-EGY[1Nal]E-NH2 [Suc-EGY1NalE-NH2] | 5

Hey, quick one: what's % Inhibition Fbw7 @ (100 µM) for each of these?
1. Tos-[dD]DG[Phe(3-F)]WE-NH2 (SMILES Cc1ccc(S(=O)(=O)N[C@H](CC(=O)O)C(=O)N[C@@H](CC(=O)O)C(=O)NCC(=O)N[C@@H](Cc2cccc(F)c2)C(=O)N[C@@H](Cc2c[nH]c3ccccc23)C(=O)N[C@@H](CCC(=O)O)C(N)=O)cc1, also called UBP025) [Ts-dDGF(3F)WE-NH2]
2. Suc-EG[Phe(2-F)][Tyr(Me)]E-NH2 (SMILES COc1ccc(C[C@H](NC(=O)[C@H](Cc2ccccc2F)NC(=O)CNC(=O)[C@H](CCC(=O)O)NC(=O)CCC(=O)O)C(=O)N[C@@H](CCC(=O)O)C(N)=O)cc1) [Suc-EGF(2F)Y(Me)E-NH2]
3. Suc-EGFFE-NH2 (SMILES NC(=O)[C@H](CCC(=O)O)NC(=O)[C@H](Cc1ccccc1)NC(=O)[C@H](Cc1ccccc1)NC(=O)CNC(=O)[C@H](CCC(=O)O)NC(=O)CCC(=O)O, also called UBP002) [Suc-EGFFE-NH2]
4. Suc-EG[Phe(2-F)][Phe(4-NO2)]E-NH2 (SMILES NC(=O)[C@H](CCC(=O)O)NC(=O)[C@H](Cc1ccc([N+](=O)[O-])cc1)NC(=O)[C@H](Cc1ccccc1F)NC(=O)CNC(=O)[C@H](CCC(=O)O)NC(=O)CCC(=O)O) [Suc-EGF(2F)F(4NO2)E-NH2]
5. Ac-[dD]EG[Phe(3-F)][1Nal]E-NH2 (SMILES CC(=O)N[C@H](CC(=O)O)C(=O)N[C@@H](CCC(=O)O)C(=O)NCC(=O)N[C@@H](Cc1cccc(F)c1)C(=O)N[C@@H](Cc1cccc2ccccc12)C(=O)N[C@@H](CCC(=O)O)C(N)=O, also called UBP016) [Ac-dEGF(3F)1NalE-NH2]

Given back:
[8, 4, 0, 0, 8]
